- method: total protein half-life in vivo (active degradation + dilution); higher = more stable protein
- test_settings: wild type E. coli NCM3722; growth: P-lim chemostat; doubling time 6 h
Below, each entry is listed with its recorded total protein half-life in vivo.
Respond with the bare value in h.

sequence_string: MTMTRLKISKTLLAVMLTSAVATGSAYAENNAQTTNESAGQKVDSSMNKVGNFMDDSAITAKVKAALVDHDNIKSTDISVKTDQKVVTLSGFVESQAQAEEAVKVAKGVEGVTSVSDKLHVRDAKEGSVKGYAGDTATTSEIKAKLLADDIVPSRHVKVETTDGVVQLSGTVDSQAQSDRAESIAKAVDGVKSVKNDLKTK [P0AFH8]
total protein half-life in vivo (h): 4.9

INPUT: Given the sequence MKVLTVFGTRPEAIKMAPLVHALAKDPFFEAKVCVTAQHREMLDQVLKLFSIVPDYDLNIMQPGQGLTEITCRILEGLKPILAEFKPDVVLVHGDTTTTLATSLAAFYQRIPVGHVEAGLRTGDLYSPWPEEANRTLTGHLAMYHFSPTETSRQNLLRENVADSRIFITGNTVIDALLWVRDQVMSSDKLRSELAANYPFIDPDKKMILVTGHRRESFGRGFEEICHALADIATTHQDIQIVYPVHLNPNVREPVNRILGHVKNVILIDPQEYLPFVWLMNHAWLILTDSGGIQEEAPSLGKPVLVMRDTTERPEAVTAGTVRLVGTDKQRIVEEVTRLLKDENEYQAMSRAHNPYGDGQACSRILEALKNNRISL , write its reported total protein half-life in vivo.
OUTPUT: 6.17

INPUT: Give total protein half-life in vivo for MSAGSPKFTVRRIAALSLVSLWLAGCSDTSNPPAPVSSVNGNAPANTNSGMLITPPPKMGTTSTAQQPQIQPVQQPQIQATQQPQIQPVQPVAQQPVQMENGRIVYNRQYGNIPKGSYSGSTYTVKKGDTLFYIAWITGNDFRDLAQRNNIQAPYALNVGQTLQVGNASGTPITGGNAITQADAAEQGVVIKPAQNSTVAVASQPTITYSESSGEQSANKMLPNNKPTATTVTAPVTVPTASTTEPTVSSTSTSTPISTWRWPTEGKVIETFGASEGGNKGIDIAGSKGQAIIATADGRVVYAGNALRGYGNLIIIKHNDDYLSAYAHNDTMLVREQQEVKAGQKIATMGSTGTSSTRLHFEIRYKGKSVNPLRYLPQR [P0ADA3]
OUTPUT: 5.81

INPUT: Answer with the recorded total protein half-life in vivo of MSNQEPATILLIDDHPMLRTGVKQLISMAPDITVVGEASNGEQGIELAESLDPDLILLDLNMPGMNGLETLDKLREKSLSGRIVVFSVSNHEEDVVTALKRGADGYLLKDMEPEDLLKALHQAAAGEMVLSEALTPVLAASLRANRATTERDVNQLTPRERDILKLIAQGLPNKMIARRLDITESTVKVHVKHMLKKMKLKSRVEAAVWVHQERIF [P0AF28] only.
OUTPUT: 5.39

INPUT: Please report the measured total protein half-life in vivo for MPELPEVETSRRGIEPHLVGATILHAVVRNGRLRWPVSEEIYRLSDQPVLSVQRRAKYLLLELPEGWIIIHLGMSGSLRILPEELPPEKHDHVDLVMSNGKVLRYTDPRRFGAWLWTKELEGHNVLTHLGPEPLSDDFNGEYLHQKCAKKKTAIKPWLMDNKLVVGVGNIYASESLFAAGIHPDRLASSLSLAECELLARVIKAVLLRSIEQGGTTLKDFLQSDGKPGYFAQELQVYGRKGEPCRVCGTPIVATKHAQRATFYCRQCQK
OUTPUT: 6.46

INPUT: Dear colleague, please send me the reported total protein half-life in vivo for MQNTTHDNVILELTVRNHPGVMTHVCGLFARRAFNVEGILCLPIQDSDKSHIWLLVNDDQRLEQMISQIDKLEDVVKVQRNQSDPTMFNKIAVFFQ [P0ADF8] when you can.
OUTPUT: 2.71

INPUT: Note total protein half-life in vivo for the sequence shown: MKAFNKLFSLVVASVLVFSLAGCGDKEESKKFSANLNGTEIAITYVYKGDKVLKQSSETKIQFASIGATTKEDAAKTLEPLSAKYKNIAGVEEKLTYTDTYAQENVTIDMEKVDFKALQGISGINVSAEDAKKGITMAQMELVMKAAGFKEVK
OUTPUT: 5.3

INPUT: Look up and report measured total protein half-life in vivo for this entry: MNSFNEGVVSPLLSFWRRSLMLAGALLLTACSHNSSLPPFTASGFAEDQGAVRIWRKDSGDNVHLLAVFSPWRSGDTTTREYRWQGDNLTLININVYSKPPVNIRARFDDRGDLSFMQRESDGEKQQLSNDQIDLYRYRADQIRQISDALRQGRVVLRQGRWHAMEQTVTTCEGQTIKPDLDSQAIAHIERRQSRSSVDVSVAWLEAPEGSQLLLVANSDFCRWQPNEKTF
OUTPUT: 6.31

INPUT: Let me know recorded total protein half-life in vivo for MRTQWPSPAKLNLFLYITGQRADGYHTLQTLFQFLDYGDTISIELRDDGDIRLLTPVEGVEHEDNLIVRAARLLMKTAADSGRLPTGSGANISIDKRLPMGGGLGGGSSNAATVLVALNHLWQCGLSMDELAEMGLTLGADVPVFVRGHAAFAEGVGEILTPVDPPEKWYLVAHPGVSIPTPVIFKDPELPRNTPKRSIETLLKCEFSNDCEVIARKRFREVDAVLSWLLEYAPSRLTGTGACVFAEFDTESEARQVLEQAPEWLNGFVAKGANLSPLHRAML , thanks.
OUTPUT: 5.31

INPUT: Specify measured total protein half-life in vivo for MAGNTIGQLFRVTTFGESHGLALGCIVDGVPPGIPLTEADLQHDLDRRRPGTSRYTTQRREPDQVKILSGVFEGVTTGTSIGLLIENTDQRSQDYSAIKDVFRPGHADYTYEQKYGLRDYRGGGRSSARETAMRVAAGAIAKKYLAEKFGIEIRGCLTQMGDIPLDIKDWSQVEQNPFFCPDPDKIDALDELMRALKKEGDSIGAKVTVVASGVPAGLGEPVFDRLDADIAHALMSINAVKGVEIGDGFDVVALRGSQNRDEITKDGFQSNHAGGILGGISSGQQIIAHMALKPTSSITVPGRTINRFGEEVEMITKGRHDPCVGIRAVPIAEAMLAIVLMDHLLRQRAQNADVKTDIPRW .
OUTPUT: 6.51

INPUT: Write down total protein half-life in vivo measured for item MKSVLKVSLAALTLAFAVSSHAADKKLVVATDTAFVPFEFKQGDKYVGFDVDLWAAIAKELKLDYELKPMDFSGIIPALQTKNVDLALAGITITDERKKAIDFSDGYYKSGLLVMVKANNNDVKSVKDLDGKVVAVKSGTGSVDYAKANIKTKDLRQFPNIDNAYMELGTNRADAVLHDTPNILYFIKTAGNGQFKAVGDSLEAQQYGIAFPKGSDELRDKVNGALKTLRENGTYNEIYKKWFGTEPK [P0AEQ3]
OUTPUT: 6.13
